Catalogue of pKd values
target_under_test: T1, TfR protein (Acro Biosystems. Cat. No. CD1-H5243) (UniProt P02786 89-760)
T1 construct: Bought recombinant protein; also called TfR1; transferrin receptor
experiment_notes: FOPPR (fiber optic particle plasmon resonance); peptide coupled to chip, TfR protein loaded at 0.5-1000 ng/mL
Interpret pKd as the negative base-10 log of the concentration measured in mol/L.

DISVLMKETD (10-mer; also called transporter peptide) [PT-057] = 8.72

Which measured pKd value corresponds to DISVLQKEYD (10-mer; also called transporter peptide) [PT-030] ?
7.99

Which measured pKd value corresponds to DITVLCKEYN (10-mer; also called transporter peptide) [PT-066] ?
7.07

Which measured pKd value corresponds to DISVVMKEYD (10-mer; also called transporter peptide) [PT-024] ?
8.09

Which measured pKd value corresponds to DISVLMKEYN (10-mer; also called transporter peptide) [PT-031] ?
8.35

Which measured pKd value corresponds to DISVLMKESD (10-mer; also called transporter peptide) [PT-056] ?
8.39

Which measured pKd value corresponds to DISVLMKEYE (10-mer; also called transporter peptide) [PT-033] ?
6.58

Which measured pKd value corresponds to DISVLMKDYD (10-mer; also called transporter peptide) [PT-054] ?
7.23

Which measured pKd value corresponds to DIHVLMKEYD (10-mer; also called transporter peptide) [PT-008] ?
8.09

Which measured pKd value corresponds to DIHVLDKEYD (10-mer; also called transporter peptide) [PT-067] ?
9.35

Which measured pKd value corresponds to DISVLNKEYD (10-mer; also called transporter peptide) [PT-026] ?
7.58
